Assay: In vivo pharmacokinetics in rats after intravenous or oral cordycepin
Parameters: species or system Sprague Dawley rats
Conditions: male, Sprague Dawley, in vivo; rat plasma, intravenous cordycepin 8 mg/kg; read-out: C0 of 3′-deoxyinosine
test_readout: C0 (µg/mL)

smiles_text: OC[C@@H]1C[C@@H](O)[C@H](n2cnc3c(O)ncnc32)O1
recorded_measurement: 5.73

====

Experiment: Plasma stability of cordycepin in human plasma
Assay type: in vitro ADME
Conditions: read-out: ex vivo stability half-life (t1/2) in plasma

compound: Nc1ncnc2c1ncn2[C@@H]1O[C@H](CO)C[C@H]1O [cordycepin, 3′-deoxyadenosine]
half-life at 10 µM, min: 25.8

====

Test: Liver microsomal stability, rat liver microsomes
Assay type: in vitro ADME
Details: rat, liver microsomes, rat liver microsome, NADPH +, pentostatin −, 1 µM

compound: Nc1ncnc2c1ncn2[C@@H]1O[C@H](CO)C[C@H]1O [cordycepin, 3′-deoxyadenosine]
CLint scaled at 1 µM: 23.5 L/h/kg

====

Experiment: In vivo pharmacokinetics in rats after intravenous or oral cordycepin
Parameters: species or system Sprague Dawley rats
Settings: male, Sprague Dawley, rat, whole blood and plasma, intravenous, 20 mg/kg, intravenous cordycepin 20 mg/kg

molecule: Nc1ncnc2c1ncn2[C@@H]1O[C@H](CO)C[C@H]1O [cordycepin, 3′-deoxyadenosine]
blood plasma ratio: 0.68

====

Experiment: Biorelevant solubility (FaSSGF, FaSSIF, FeSSIF)
Assay type: physicochemical
Conditions: FaSSGF, fassgf or other biorelevant, thermodynamic from solid, pH 1.6, 37 °C, compared with reported water solubility, read-out: solubility in FaSSGF
test_readout: solubility at 2 h

molecule: Nc1ncnc2c1ncn2[C@@H]1O[C@H](CO)C[C@H]1O [cordycepin, 3′-deoxyadenosine]
recorded_measurement: > 5000 µg/mL

====

Assay: Plasma stability of cordycepin in rat plasma
Assay type: in vitro ADME
Settings: read-out: ex vivo stability half-life (t1/2) in plasma

compound: Nc1ncnc2c1ncn2[C@@H]1O[C@H](CO)C[C@H]1O [cordycepin, 3′-deoxyadenosine]
uom: min
half-life at 10 µM: 25

====

Assay: Liver microsomal stability, rat liver microsomes
Type: in vitro ADME
Conditions: rat, liver microsomes, rat liver microsome, NADPH −, pentostatin −, 1 µM
test_readout: CLint scaled at 1 µM

compound: Nc1ncnc2c1ncn2[C@@H]1O[C@H](CO)C[C@H]1O [cordycepin, 3′-deoxyadenosine]
test_readout: CLint scaled at 1 µM
recorded_measurement: 390 mL/min/kg

====

Assay: In vivo pharmacokinetics in rats after intravenous or oral cordycepin
Parameters: species or system Sprague Dawley rats
Conditions: male, Sprague Dawley, in vivo; rat, intravenous cordycepin 8 mg/kg; read-out: CL of cordycepin (converted)

compound: Nc1ncnc2c1ncn2[C@@H]1O[C@H](CO)C[C@H]1O [cordycepin, 3′-deoxyadenosine]
clearance: 1720 mL/min/kg

====

Assay: Biorelevant solubility (FaSSGF, FaSSIF, FeSSIF)
Format: physicochemical
Conditions: FeSSIF, thermodynamic from solid, pH 5.0, 37 °C, compared with reported water solubility, read-out: solubility in FeSSIF
test_readout: solubility at 2 h

compound: Nc1ncnc2c1ncn2[C@@H]1O[C@H](CO)C[C@H]1O [cordycepin, 3′-deoxyadenosine]
test_readout: solubility at 2 h
recorded_measurement: > 5000 µg/mL

====

Assay: In vivo pharmacokinetics in rats after intravenous or oral cordycepin
Parameters: species or system Sprague Dawley rats
Conditions: male, Sprague Dawley, in vivo; rat plasma, intravenous cordycepin 20 mg/kg; read-out: C0 of 3′-deoxyinosine
test_readout: C0 (ng/mL)

compound: OC[C@@H]1C[C@@H](O)[C@H](n2cnc3c(O)ncnc32)O1 [3′-deoxyinosine]
uom: ng/mL
recorded_measurement: 16300

====

Experiment: Plasma protein binding, ultrafiltration, rat plasma
Assay type: in vitro ADME
Conditions: read-out: fraction unbound (Fub) in plasma
test_readout: fraction unbound at 1 h

compound: Nc1ncnc2c1ncn2[C@@H]1O[C@H](CO)C[C@H]1O [cordycepin, 3′-deoxyadenosine]
recorded_measurement: > 0.8

====

Assay: In vivo pharmacokinetics in rats after intravenous or oral cordycepin
Design: species or system Sprague Dawley rats
Conditions: male, Sprague Dawley; rat plasma, oral cordycepin 8 mg/kg; read-out: Cmax of 3′-deoxyinosine

compound: OC[C@@H]1C[C@@H](O)[C@H](n2cnc3c(O)ncnc32)O1 [3′-deoxyinosine]
Cmax: 202 ng/mL

====

Assay: Caco-2 permeability
Type: in vitro ADME
Details: human, Caco-2; read-out: Papp of 3′-deoxyinosine, A to B
Procedure: Caco-2 permeability assays were conducted following previously reported methods with 21-day maintenance on the Corning 24-well Transwell® (Fisher Scientific, Loughborough, UK)[48]. […] Both directions of apical-to-basolateral and basolateral-to-apical were tested. […] The experiments were conducted in triplicates. Samples from Caco-2 permeability, in vitro determination of CordyTP formation and in vivo experiments were subjected to protein precipitation followed by LC-MS/MS analysis. […]
test_readout: Papp A→B at 120 min, 200 µM

smiles_text: OC[C@@H]1C[C@@H](O)[C@H](n2cnc3c(O)ncnc32)O1
recorded_measurement: ~0.2 ×10⁻⁶ cm/s

====

Test: In vivo pharmacokinetics in rats after intravenous or oral cordycepin
Set-up: species or system Sprague Dawley rats
Settings: male, Sprague Dawley, plasma; rat, intravenous cordycepin 8 mg/kg; read-out: Vss of 3′-deoxyinosine

smiles_text: OC[C@@H]1C[C@@H](O)[C@H](n2cnc3c(O)ncnc32)O1
Vd, L/kg: 2.8

====

Test: Biorelevant solubility (FaSSGF, FaSSIF, FeSSIF)
Assay type: physicochemical
Conditions: FaSSIF, thermodynamic from solid, pH 6.5, 37 °C, compared with reported water solubility, read-out: solubility in FaSSIF

compound: Nc1ncnc2c1ncn2[C@@H]1O[C@H](CO)C[C@H]1O [cordycepin, 3′-deoxyadenosine]
solubility at 2 h: > 5000 µg/mL

====

Assay: In vivo pharmacokinetics in rats after intravenous or oral cordycepin
Set-up: species or system Sprague Dawley rats
Conditions: male, Sprague Dawley, in vivo; rat plasma, intravenous cordycepin 20 mg/kg; read-out: C0 of cordycepin

compound: Nc1ncnc2c1ncn2[C@@H]1O[C@H](CO)C[C@H]1O [cordycepin, 3′-deoxyadenosine]
uom: ng/mL
C0: 12300

====

Experiment: In vivo pharmacokinetics in rats after intravenous or oral cordycepin
Parameters: species or system Sprague Dawley rats
Details: male, Sprague Dawley, in vivo; rat plasma, intravenous cordycepin 8 mg/kg; read-out: AUC0→t of cordycepin
test_readout: AUC(0-t) (ng·h/mL)

molecule: Nc1ncnc2c1ncn2[C@@H]1O[C@H](CO)C[C@H]1O [cordycepin, 3′-deoxyadenosine]
recorded_measurement: 196

====

Assay: Liver microsomal stability, human liver microsomes
Format: in vitro ADME
Conditions: human, liver microsomes, human liver microsome, NADPH +, pentostatin −, 1 µM
test_readout: CLint scaled at 1 µM (mL/min/kg)

compound: Nc1ncnc2c1ncn2[C@@H]1O[C@H](CO)C[C@H]1O [cordycepin, 3′-deoxyadenosine]
recorded_measurement: 181
